Target: Axl (Homo sapiens, UniProt P30530)
Construct: endogenous in cells; host or cells: HeLa cells
Sequence (P30530 26-894): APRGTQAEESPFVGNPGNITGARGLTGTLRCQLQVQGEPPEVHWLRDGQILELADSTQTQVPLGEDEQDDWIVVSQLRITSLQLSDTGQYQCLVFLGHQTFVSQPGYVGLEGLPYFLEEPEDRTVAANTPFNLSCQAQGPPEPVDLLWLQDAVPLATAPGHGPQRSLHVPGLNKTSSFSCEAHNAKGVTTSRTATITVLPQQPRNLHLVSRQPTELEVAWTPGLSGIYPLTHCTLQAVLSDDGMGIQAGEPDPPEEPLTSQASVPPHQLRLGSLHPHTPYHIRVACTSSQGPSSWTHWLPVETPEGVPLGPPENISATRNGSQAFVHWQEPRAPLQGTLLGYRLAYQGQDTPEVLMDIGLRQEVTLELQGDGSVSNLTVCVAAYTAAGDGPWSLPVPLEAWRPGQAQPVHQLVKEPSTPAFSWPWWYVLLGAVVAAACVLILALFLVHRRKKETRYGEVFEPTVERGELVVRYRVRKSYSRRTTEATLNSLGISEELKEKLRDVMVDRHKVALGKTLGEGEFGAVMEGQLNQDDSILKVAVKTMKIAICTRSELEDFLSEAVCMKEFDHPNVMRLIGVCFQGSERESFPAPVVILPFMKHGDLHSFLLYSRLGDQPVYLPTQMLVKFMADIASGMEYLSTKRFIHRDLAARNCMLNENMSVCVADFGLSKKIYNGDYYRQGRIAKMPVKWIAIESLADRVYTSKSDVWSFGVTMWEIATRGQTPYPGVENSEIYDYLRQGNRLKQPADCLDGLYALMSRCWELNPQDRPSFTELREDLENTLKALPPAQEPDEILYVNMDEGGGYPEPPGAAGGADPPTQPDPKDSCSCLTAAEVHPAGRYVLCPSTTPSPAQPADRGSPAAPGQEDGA
Test: Phospho-Akt In-Cell Western Assay (inhibition of Axl activity after Axl-antibody cross-linking)
Type: cell-based
Settings: Hela cells, phospho-Akt chemiluminescence normalized to relative cell number; compounds of formula (Ia), Table 1; read-out: IC50
pIC50: −log10 of the molar value.
MEASURED_METRIC: pIC50

Below, 3 compounds whose answers are already recorded.
Which pIC50 is reported for this compound? CCN(CC)C1CCN(c2ccc(Nc3nc(N)n(-c4ncnc5c4CCCc4ccccc4-5)n3)cc2F)CC1 [Compound 39]
> 6.00

Which pIC50 is reported for this compound? CCCN1CC2CN(c3ccc(Nc4nc(N)n(-c5cc6c(nn5)-c5ccccc5CCC6)n4)cc3F)CC2C1 (stereo not shown) [Compound 72]
> 6.00

Which pIC50 is reported for this compound? Nc1nc(Nc2ccc3oc(CN4CCCC4)nc3c2)nn1-c1cc2c(nn1)-c1ccccc1OCC2 [Compound 118]
5.00 to 6.00

Others:
Which pIC50 is reported for this compound? Nc1nc(Nc2ccc(N3CC[C@H]4CCCC[C@@H]4C3)c(F)c2)nn1-c1cc2c(nn1)-c1ccccc1SCC2 [Compound 126]
< 4.70

Which pIC50 is reported for this compound? Nc1nc(Nc2ccc(N3CCC(N4CCOCC4)CC3)c(F)c2)nn1-c1cc2c(nn1)-c1ccccc1CCC2 [Compound 9]
5.00 to 6.00

Which pIC50 is reported for this compound? Nc1nc(Nc2ccc(CC3C(=O)Nc4ccc(F)cc43)cc2)nn1-c1cc2c(nn1)-c1ccccc1CCC2 (stereo not shown) [Compound 91]
< 4.70

Which pIC50 is reported for this compound? Nc1nc(Nc2ccc(N3Cc4ccccc4C3)c(F)c2)nn1-c1cc2c(nn1)-c1ccccc1SCC2 [Compound 123]
< 4.70

----------
molecular target: Axl (Homo sapiens); construct: endogenous in cells; host or cells: HeLa cells; assay: Phospho-Akt In-Cell Western Assay (inhibition of Axl activity after Axl-antibody cross-linking); format: cell-based; settings: Hela cells, phospho-Akt chemiluminescence normalized to relative cell number; compounds of formula (Ia), Table 1; read-out: IC50
MEASURED_METRIC: IC50

Below, 2 compounds whose answers are already recorded.
Which IC50 is reported for this compound? CN1CCN(C2CCN(c3ccc(Nc4nc(N)n(-c5cc6c(nn5)CCCc5ccccc5-6)n4)cc3F)CC2)CC1
< 1000 nM

Which IC50 is reported for this compound? CN(C1CCCC1)C1CCN(c2ccc(Nc3nc(N)n(-c4cc5c(nn4)-c4ccccc4CCC5)n3)cc2F)CC1
< 1000 nM

Continue with the compound presented below.
Which IC50 is reported for this compound? Nc1nc(Nc2ccc(N3CCC(N4CCCC4)CC3)c(C(F)(F)F)c2)nn1-c1cc2c(nn1)-c1ccccc1CCC2
1000 to 10000 nM

----------
Property: IC50; scope: individual compounds
Target: Axl (Homo sapiens)
Construct: endogenous in cells; host or cells: HeLa cells
Experiment: Phospho-Akt In-Cell Western Assay (inhibition of Axl activity after Axl-antibody cross-linking)
Assay type: cell-based
Conditions: Hela cells, phospho-Akt chemiluminescence normalized to relative cell number; compounds of formula (Ia), Table 1; read-out: IC50
Method: The compounds of the invention were tested in the following assay for their ability to inhibit Axl activity. Phospho-Akt In-Cell Western Assay […]

Below, 6 compounds whose answers are already recorded.
Which IC50 is reported for this compound? CN1CC2CN(c3ccc(Nc4nc(N)n(-c5cc6c(nn5)-c5ccccc5CCC6)n4)cc3F)CC2C1 (stereo not shown) [Compound 66]
< 1000 nM

Which IC50 is reported for this compound? Nc1nc(Nc2ccc(OCCN3CCCC3)c(F)c2)nn1-c1ncc2c(n1)-c1ccccc1CCC2 [Compound 44]
< 1000 nM

Which IC50 is reported for this compound? Nc1nc(Nc2cnc3c(c2)CCN(C2CCCC2)CC3)nn1-c1cc2c(nn1)-c1ccccc1CCC2 [Compound 26]
1000 to 10000 nM

Which IC50 is reported for this compound? Nc1nc(Nc2ccc(N3CCC(N4CCCC4)CC3)c(F)c2)nn1-c1cc2c(nn1)-c1cc(F)ccc1CCC2 [Compound 53]
< 1000 nM

Which IC50 is reported for this compound? CN1CCN(C(=O)C2CCc3ncc(Nc4nc(N)n(-c5cc6c(nn5)-c5ccccc5CCC6)n4)cc3C2)CC1 (stereo not shown) [Compound 31]
< 1000 nM

Which IC50 is reported for this compound? CCCCN(Cc1ccc(Nc2nc(N)n(-c3cc4c(nn3)-c3ccccc3CCC4)n2)cc1)C(C)=O [Compound 90]
1000 to 10000 nM

Continue with the compound presented below.
Which IC50 is reported for this compound? Nc1nc(Nc2ccc(N3CC(N4CCCC4)C3)c(F)c2)nn1-c1cc2c(nn1)-c1ccccc1CCC2 [Compound 113]
< 1000 nM

----------
target: Axl (Homo sapiens); construct: endogenous in cells; host or cells: HeLa cells; test: Phospho-Akt In-Cell Western Assay (inhibition of Axl activity after Axl-antibody cross-linking); format: cell-based; settings: Hela cells, phospho-Akt chemiluminescence normalized to relative cell number; compounds of formula (Ia), Table 1; read-out: IC50
Property: IC50; scope: individual compounds

IC50 of Nc1nc(Nc2ccc(N3CC[C@@H](CN4CCCC4)C3)c(F)c2)nn1-c1cc2c(nn1)-c1ccccc1CCC2 on Axl (Homo sapiens)?
1000 to 10000 nM

IC50 of Nc1nc(Nc2ccc(N3CCN(C4CCCCC4)CC3)c(F)c2)nn1-c1ncc2c(n1)-c1ccccc1CCC2 on Axl (Homo sapiens)?
< 1000 nM

IC50 of Nc1nc(Nc2ccc(N3CCN([C@H]4CC5CCC4C5)CC3)cc2)nn1-c1ncc2c(n1)-c1ccccc1CCC2 (stereo partly shown) on Axl (Homo sapiens)?
< 1000 nM

IC50 of Nc1nc(Nc2ccc(C(=O)N3CCN(C4CCCC4)CC3)cc2)nn1-c1cc2c(nn1)-c1ccccc1CCC2 on Axl (Homo sapiens)?
1000 to 10000 nM

IC50 of Nc1nc(Nc2ccc(OCCN3CCCC3)cc2)nn1C1=Nc2ccccc2Sc2ccccc21 on Axl (Homo sapiens)?
1000 to 10000 nM

IC50 of Nc1nc(Nc2ccc(N3CCN(C4CCCC4)CC3)c(F)c2)nn1-c1cc2c(nn1)-c1ccccc1CCC2 on Axl (Homo sapiens)?
< 1000 nM

IC50 of CCN(CC)C1CCN(c2ccc(Nc3nc(N)n(C4=Nc5ccccc5Sc5ccccc54)n3)cc2F)CC1 on Axl (Homo sapiens)?
1000 to 10000 nM

----------
target: Axl (Homo sapiens); construct: endogenous in cells; host or cells: HeLa cells; experiment: Phospho-Akt In-Cell Western Assay (inhibition of Axl activity after Axl-antibody cross-linking); assay type: cell-based; conditions: Hela cells, phospho-Akt chemiluminescence normalized to relative cell number; compounds of formula (Ia), Table 1; read-out: IC50
pIC50: −log10 of the molar value.
MEASURED_METRIC: pIC50

Below, 6 compounds whose answers are already recorded.
Which pIC50 is reported for this compound? Nc1nc(Nc2ccc3c(c2)CCCCO3)nn1-c1cc2c(nn1)-c1ccccc1CCC2
5.00 to 6.00

Which pIC50 is reported for this compound? COc1ccc2c(c1)CCCc1cc(-n3nc(Nc4ccc(N5CCC(N6CCCC6)CC5)c(F)c4)nc3N)nnc1-2
> 6.00

Which pIC50 is reported for this compound? Nc1nc(Nc2ccc(N3CCC(N4CCCC4)CC3)c(F)c2)nn1-c1cc2c(nn1)-c1ccccc1SCC2
> 6.00

Which pIC50 is reported for this compound? COc1cc2c(cc1OC)-c1nnc(-n3nc(Nc4ccc(N5CCC(N6CCCC6)CC5)c(F)c4)nc3N)cc1CCC2
5.00 to 6.00

Which pIC50 is reported for this compound? Nc1nc(Nc2ccc(N3CCN(C4CC5CCC4C5)CC3)nc2)nn1-c1cc2c(nn1)-c1ccccc1CCC2 (stereo not shown)
5.00 to 6.00

Which pIC50 is reported for this compound? Nc1nc(Nc2ccc(OCCN3CCCC3)c(Cl)c2)nn1-c1cc2c(nn1)-c1ccccc1CCC2
5.00 to 6.00

Continue with the compound presented below.
Which pIC50 is reported for this compound? COc1cc2c(c(OC)c1OC)-c1nnc(-n3nc(Nc4ccc(N5CCC(N6CCCC6)CC5)c(F)c4)nc3N)cc1CCC2
> 6.00
